Measured molar heat capacity at constant pressure of individual entries
protocolDetails: molar heat capacity at constant pressure
recordedConditions: 323.15 K; 101.33 kPa; Liquid; Large sample (1 g) DSC
Numbers after ± are expanded uncertainties.

# compound, molar heat capacity at constant pressure
measured = [
    ("CCCCCCCBr [1-bromoheptane]", "258.58 ± 11 J/K/mol"),
    ("CCCCCCCCBr [1-bromooctane]", "284.92 ± 12 J/K/mol"),
    ("CCCCCCCCCCCBr [1-bromoundecane]", "385.69 ± 16 J/K/mol"),
    ("CCCCCCBr [1-bromohexane]", "227.77 ± 9.7 J/K/mol"),
    ("CCCCCCCCCCBr [1-bromodecane]", "346.85 ± 15 J/K/mol"),
    ("CCCCCCCCCCCCCCBr [1-tetradecyl bromide]", "467.03 ± 20 J/K/mol"),
    ("CCCCCCCCCCCCBr [1-bromododecane]", "414.75 ± 18 J/K/mol"),
    ("CCCCCCCCCBr [1-bromononane]", "319.61 ± 14 J/K/mol"),
]

====

protocolDetails: molar heat capacity at constant pressure
recordedConditions: 298.15 K; 101.33 kPa; Liquid; Large sample (1 g) DSC
The entries below come with measured molar heat capacity at constant pressure values attached.
testReadout: molar heat capacity at constant pressure (J/K/mol)

# compound, testReadout, resultUnits, valueObserved
records = [
    ("CCCCCCCCCCCCCCBr [1-tetradecyl bromide]", "molar heat capacity at constant pressure", "J/K/mol", 450.84),
    ("CCCCCCCCCCCBr", "molar heat capacity at constant pressure", "J/K/mol", 373.22),
    ("CCCCCCCCBr", "molar heat capacity at constant pressure", "J/K/mol", 272.15),
    ("CCCCCCCCCCBr", "molar heat capacity at constant pressure", "J/K/mol", 334.38),
    ("CCCCCCCBr", "molar heat capacity at constant pressure", "J/K/mol", 249.39),
    ("CCCCCCBr", "molar heat capacity at constant pressure", "J/K/mol", 219.66),
    ("CCCCCCCCCCCCBr", "molar heat capacity at constant pressure", "J/K/mol", 399.29),
    ("CCCCCCCCCBr", "molar heat capacity at constant pressure", "J/K/mol", 308.3),
]

====

protocolDetails: molar heat capacity at constant pressure
recordedConditions: 328.15 K; 101.33 kPa; Liquid; Large sample (1 g) DSC
So basically: molar heat capacity at constant pressure at 400 J/K/mol or higher? That is 1 (yes). Lower than 400 J/K/mol? That is 0 (no).

# compound, qualitativeLabel
data = [
    ("CCCCCCCCCBr [1-bromononane]", "0 (no)"),
    ("CCCCCCCCCCCCCCBr [1-tetradecyl bromide]", "1 (yes)"),
    ("CCCCCCCCCCBr [1-bromodecane]", "0 (no)"),
    ("CCCCCCCCCCCCBr [1-bromododecane]", "1 (yes)"),
    ("CCCCCCCBr [1-bromoheptane]", "0 (no)"),
    ("CCCCCCBr [1-bromohexane]", "0 (no)"),
    ("CCCCCCCCBr [1-bromooctane]", "0 (no)"),
]

====

protocolDetails: molar heat capacity at constant pressure
recordedConditions: 353.15 K; 101.33 kPa; Liquid; Large sample (1 g) DSC
Field: label. Allowed values: y (molar heat capacity at constant pressure < 300 J/K/mol) or n (molar heat capacity at constant pressure >= 300 J/K/mol).

# compound, qualitativeLabel
rows = [
    ("CCCCCCCCCCCCCCBr [1-tetradecyl bromide]", "n"),
    ("CCCCCCBr [1-bromohexane]", "y"),
    ("CCCCCCCCCCCBr [1-bromoundecane]", "n"),
    ("CCCCCCCCCCCCBr [1-bromododecane]", "n"),
]

Data origin, for the record: the NIST ThermoML archive (doi:10.1007/s10765-016-2064-y)
